biological target: human Gastric Inhibitory Peptide Receptor (human) (UniProt P48546); experiment: FACS competition with GIP-057 on CHO-K1-hGIPR cells; pIC50 category A: >8.0
Sequence (P48546 22-466 limits assumed): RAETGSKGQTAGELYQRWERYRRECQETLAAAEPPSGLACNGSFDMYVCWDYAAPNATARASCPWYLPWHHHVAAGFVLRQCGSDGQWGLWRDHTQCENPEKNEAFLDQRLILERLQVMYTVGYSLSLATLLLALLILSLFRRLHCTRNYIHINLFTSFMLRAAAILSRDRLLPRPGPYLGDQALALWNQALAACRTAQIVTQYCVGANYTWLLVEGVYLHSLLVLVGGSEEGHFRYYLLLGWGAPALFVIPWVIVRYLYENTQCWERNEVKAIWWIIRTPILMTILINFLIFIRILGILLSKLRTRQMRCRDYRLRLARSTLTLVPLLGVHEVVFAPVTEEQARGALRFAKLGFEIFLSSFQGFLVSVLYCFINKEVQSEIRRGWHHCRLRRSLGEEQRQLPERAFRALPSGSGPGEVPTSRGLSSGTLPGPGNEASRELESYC
*1 amine or outer side, *2 acyl side, *3 side chain or, on linkers, in order; H or OH if unused. Bridges are numbered along the chain shown (N, C = ends). [ ]: non-standard residue; d: D form. Trp(5-Cl) = N[C@@H](Cc1c[nH]c2ccc(Cl)cc12)C(=O)O; Pyridine(2,6-diCH2) = c1cc(C[*:1])nc(C[*:2])c1; Hyp = O=C(O)[C@@H]1C[C@@H](O)CN1; pS = N[C@@H](COP(=O)(O)O)C(=O)O; Ac5c = NC1(C(=O)O)CCCC1; Thp = NC1(C(=O)O)CCOCC1
recorded endpoint: pIC50

Ac-[pS]W[Trp(5-Cl)][Hyp]E[dL]C[Thp]LIC-NH2 (linker 7-11 via Pyridine(2,6-diCH2); SMILES CC[C@H](C)[C@@H]1NC(=O)[C@H](CC(C)C)NC(=O)C2(CCOCC2)NC(=O)[C@@H](NC(=O)[C@@H](CC(C)C)NC(=O)[C@H](CCC(=O)O)NC(=O)[C@@H]2C[C@@H](O)CN2C(=O)[C@H](Cc2c[nH]c3ccc(Cl)cc23)NC(=O)[C@H](Cc2c[nH]c3ccccc23)NC(=O)[C@H](COP(=O)(O)O)NC(C)=O)CSCc2cccc(n2)CSC[C@@H](C(N)=O)NC1=O) [Ac-Pse-Trp-5Clw-Hyp-Glu-leu-[Cys(2Lut)-Thp-Leu-Ile-Cys]-NH2]; > 8 pic50
Ac-DW[Trp(5-Cl)][Hyp]E[dL]C[Ac5c]LIC-NH2 (linker 7-11 via Pyridine(2,6-diCH2)) [Ac-Asp-Trp-5Clw-Hyp-Glu-leu-[Cys(2Lut)-Eca-Leu-Ile-Cys]-NH2]; > 8 pic50

Alright, here's another binder for you.
Param item = Ac-DW[Trp(5-Cl)][Hyp]D[dL]C[Thp]LIC-NH2 (linker 7-11 via Pyridine(2,6-diCH2)) [Ac-Asp-Trp-5Clw-Hyp-Asp-leu-[Cys(2Lut)-Thp-Leu-Ile-Cys]-NH2] ; retrieve measured pIC50.
> 8 pic50
